- System: Vero E6 infected with SARS-CoV-2
- procedureDetails: SARS-CoV-2 infection rate relative to infected DMSO; higher = more infection, active = 60 or less
- conditionDetails: 24 h
In this section we review reported SARS-CoV-2 infection rate values for a set of compounds.
propertyLabel: SARS-CoV-2 infection rate (%)

[[record]]
compound = "O=[N+]([O-])c1cccc2c(Br)n[nH]c12 [3-bromo-7-nitroindazole] (10 µM)"
tgt = "Vero E6 infected with SARS-CoV-2"
numericresult = 110

[[record]]
compound = "CCCCCCCCCCCCCCCCCCCCCCO [docosanol] (10 µM)"
tgt = "Vero E6 infected with SARS-CoV-2"
numericresult = 102

[[record]]
compound = "Cn1cc(C[C@@H](N)C(=O)O)c2ccccc21 [indoximod] (10 µM)"
tgt = "Vero E6 infected with SARS-CoV-2"
numericresult = 110

[[record]]
compound = "CCC(=O)O[C@@H](O[P@@](=O)(CCCCc1ccccc1)CC(=O)N1C[C@H](C2CCCCC2)C[C@H]1C(=O)O)C(C)C [fosinopril] (10 µM)"
tgt = "Vero E6 infected with SARS-CoV-2"
numericresult = 104

[[record]]
compound = "Cc1ccc(-c2ncn(-c3ccc(Nc4nccc(-c5cccc(N6CCOCC6)c5)n4)cc3)n2)cn1 (10 µM)"
tgt = "Vero E6 infected with SARS-CoV-2"
numericresult = 102

[[record]]
compound = "COc1c(C)cnc(Cn2cc(C#CCC(C)(C)O)c3c(Cl)nc(N)nc32)c1C (10 µM)"
tgt = "Vero E6 infected with SARS-CoV-2"
numericresult = 110

[[record]]
compound = "O=C(N[C@H]1CN2CCC1CC2)c1ccc(Cl)cc1 (10 µM)"
tgt = "Vero E6 infected with SARS-CoV-2"
numericresult = 99.5

[[record]]
compound = "Cc1cc(C)cc(C(=O)N(C)[C@H](Cc2ccc(-c3ccccc3)cc2)C(=O)N[C@@H](Cc2c[nH]c3ccccc23)C(=O)O)c1 (10 µM)"
tgt = "Vero E6 infected with SARS-CoV-2"
numericresult = 95

[[record]]
compound = "O=C(O)c1cc2occc2[nH]1 (10 µM)"
tgt = "Vero E6 infected with SARS-CoV-2"
numericresult = 109

[[record]]
compound = "Cc1onc(-c2ccccc2)c1C(=O)N[C@@H]1C(=O)N2[C@@H]1SC(C)(C)[C@@H]2C(=O)O [oxacillin] (10 µM)"
tgt = "Vero E6 infected with SARS-CoV-2"
numericresult = 110

[[record]]
compound = "O=C(CCCN1CC=C(n2c(=O)[nH]c3ccccc32)CC1)c1ccc(F)cc1 [droperidol] (10 µM)"
tgt = "Vero E6 infected with SARS-CoV-2"
numericresult = 112

[[record]]
compound = "Cc1cc2c(C(N)=O)cccc2n1-c1nc2c(c(NCc3ccccc3)n1)COCC2 (10 µM)"
tgt = "Vero E6 infected with SARS-CoV-2"
numericresult = 116

[[record]]
compound = "CNC(=O)[C@H](Cc1c[nH]c2ccccc12)NC(=O)[C@@H](CC(=O)NO)CC(C)C [ilomastat] (10 µM)"
tgt = "Vero E6 infected with SARS-CoV-2"
numericresult = 114

[[record]]
compound = "CC(C)NCC(O)COc1cccc2ccccc12 (configuration not stated) [propranolol] (10 µM)"
tgt = "Vero E6 infected with SARS-CoV-2"
numericresult = 103

[[record]]
compound = "CC(=O)NS(=O)(=O)c1ccc(N)cc1 [sulfacetamide] (10 µM)"
tgt = "Vero E6 infected with SARS-CoV-2"
numericresult = 100

[[record]]
compound = "CC(C)(C)CC(C)(C)c1ccc(OCCOCC[N+](C)(C)Cc2ccccc2)cc1 [benzethonium] (10 µM)"
tgt = "Vero E6 infected with SARS-CoV-2"
numericresult = 108

[[record]]
compound = "O=C(O)Cn1c2c(c3cc(F)ccc31)CN(C(=O)c1cccc3ccccc13)CC2 [setipiprant] (10 µM)"
tgt = "Vero E6 infected with SARS-CoV-2"
numericresult = 108


Where these numbers come from: the supplement of paper PMC13380429
